Entry source: paper PMC2673050

Experiment: Cytotoxicity testing
Type: cell-based
Details: human, MCF7 breast cells
// reported IC50 at 72 h for each item listed

The following molecules have reported results that may help.
# smiles code, reported result
data = [
    ("COc1cccc2c(C)cc(=O)[nH]c12", "> 106 µM"),
    ("COc1cc(OC)c2c(c1)c(C)cc(=O)n2C", "> 85.8 µM"),
    ("COc1c(OC)c(OC)c2c(c(C)cc(=O)n2C)c1OC", "> 68.2 µM"),
]

Report IC50 at 72 h, nothing else, for this molecule: "Cc1cc(=O)n(C)c2ccccc12"
> 116 µM

Report IC50 at 72 h, nothing else, for this molecule: "COc1cc(=O)n(C)c2c3c(ccc12)OCO3"
> 85.8 µM

----------
Experiment: Cytotoxicity testing
Format: cell-based
Settings: human, LU lung cancer cells
// reported IC50 at 72 h for each item listed

The following compounds have reported results that may help.
# compound, IC50 at 72 h
data = [
    ("COc1cc(=O)n(C)c2c3c(ccc12)OCO3 [compound 1]", "> 85.8 µM"),
    ("COc1ccc2c(C)cc(=O)n(C)c2c1OC [1h]", "> 85.8 µM"),
    ("COc1ccc(OC)c2c(C)cc(=O)[nH]c12 [1k, 5,8-Dimethoxy-4-methylquinolin-2(1H)-one]", "> 91.2 µM"),
    ("COc1cccc2c(C)cc(=O)n(C)c12 [1f, 8-Methoxy-1,4-dimethylquinolin-2(1H)-one]", "> 98.5 µM"),
    ("Cc1cc(=O)[nH]c2c3c(ccc12)OCO3 [1a]", "> 98.5 µM"),
    ("COc1cccc2c(C)cc(=O)[nH]c12 [1e, 8-Methoxy-4-methylquinolin-2(1H)-one]", "> 106 µM"),
    ("COc1cc2c(C)cc(=O)n(C)c2c(OC)c1OC [1n]", "> 76 µM"),
    ("Cc1cc(=O)n(C)c2c3c(ccc12)OCO3 [1b]", "> 92.1 µM"),
]

Report IC50 at 72 h, nothing else, for this compound: Cc1cc(=O)n(C)c2ccccc12 [1d, 1,4-Dimethylquinolin-2(1H)-one]
> 116 µM

Report IC50 at 72 h, nothing else, for this compound: COc1c(OC)c(OC)c2c(C)cc(=O)[nH]c2c1OC [1q]
> 71.7 µM

----------
Target: Human QR2 (Homo sapiens)
Sequence (P16083 whole entry): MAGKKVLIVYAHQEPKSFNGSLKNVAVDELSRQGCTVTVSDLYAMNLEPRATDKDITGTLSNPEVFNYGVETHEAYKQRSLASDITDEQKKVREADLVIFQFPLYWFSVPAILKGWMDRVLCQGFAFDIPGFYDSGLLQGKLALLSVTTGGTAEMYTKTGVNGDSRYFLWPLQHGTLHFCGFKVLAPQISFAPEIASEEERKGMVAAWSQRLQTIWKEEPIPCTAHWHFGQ
Test: QR2 inhibition assay
Assay type: biochemical
Conditions: relative to natural product 1
endpoint name: Increase in QR2 inhibitory potency relative to compound 1

Report Increase in QR2 inhibitory potency relative to compound 1, nothing else, for this compound: "COc1ccc(OC)c2c1c(C)cc(=O)n2C"
10 fold

----------
Experiment: Cytotoxicity testing
Format: cell-based
Settings: human, MCF7 breast cells
endpoint name: IC50 at 72 h

The following compounds have reported results that may help.
# compound, IC50 at 72 h
measured = [
    ("COc1ccc(OC)c2c1c(C)cc(=O)n2C [1l]", "> 85.7 µM"),
    ("Cc1cc(=O)[nH]c2c3c(ccc12)OCO3 [1a]", "> 98.5 µM"),
    ("COc1cccc2c(C)cc(=O)n(C)c12 [1f, 8-Methoxy-1,4-dimethylquinolin-2(1H)-one]", "> 98.5 µM"),
]

--- query ---
Report IC50 at 72 h, nothing else, for this compound: COc1cc2c(C)cc(=O)[nH]c2c(OC)c1OC [1m]
> 80.3 µM
